Target: Cystic fibrosis transmembrane conductance regulator (Homo sapiens)
Assay: F508del-CFTR plasma membrane relocalization enhancers – imaging, HeLa, high-content microscopy, immunofluorescence, primary screen (AID 1224864);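 note: HeLa cells stably expressing F508del-CFTR stained with 3G11 antibody against NBD1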
Details: PM immunofluorescence imaging, 24 h, at 10 µM, stronger effect = higher value, relative to vehicle wells set at 100; measured here: total cellular F508del-CFTR signal
The whole screen tested about 2,000 compounds, of which about 20 (1%) were called active. The full list was thinned out, with actives kept by preference.
Reported total CFTR intensity values are given for each entry in this list.
valueKind: total CFTR intensity (%)

[
  {
    "compound": "CCN(CC)CCCNC(=O)C1c2ccccc2Oc2ccccc21",
    "reportedResult": 85
  },
  {
    "compound": "O=c1[nH]c(Cc2ccccc2)nc2c1oc1ccccc12",
    "reportedResult": 79
  },
  {
    "compound": "COc1ccccc1Oc1c(C)oc2c(CN3CCN(CCO)CC3)c(O)ccc2c1=O",
    "reportedResult": 89
  },
  {
    "compound": "CC(=O)Nc1ccc(S(=O)(=O)c2ccc(N)cc2)cc1",
    "reportedResult": 95
  },
  {
    "compound": "COc1ccc(NC(=O)N2CCCCC2c2cccnc2)cc1 (stereo not drawn)",
    "reportedResult": 84
  },
  {
    "compound": "CCOC(=O)C1C(=O)CC(C)(O)C(C(=O)OCC)C1/C=C/c1ccccc1 (stereo not drawn)",
    "reportedResult": 102
  },
  {
    "compound": "O=C(CCCC(=O)OCC1CCCO1)OCC1CCCO1 (stereo not drawn)",
    "reportedResult": 84
  },
  {
    "compound": "CC(C)(C)c1csc(N/N=C/c2cccnc2)n1",
    "reportedResult": 92
  },
  {
    "compound": "COc1ccc2c(c1OC)C(C1c3c(cc4c(c3OC)OCO4)CCN1C)OC2=O (stereo not drawn)",
    "reportedResult": 112
  },
  {
    "compound": "COc1cc(C(=O)OCCCN(C)C)cc(OC)c1OC",
    "reportedResult": 84
  },
  {
    "compound": "CC(C)=CCC/C(C)=C/CC/C(C)=N/O",
    "reportedResult": 87
  },
  {
    "compound": "CS(=O)(=O)Oc1ccc2c(c1)O/C(=C\\C=C\\c1ccccc1)C2=O",
    "reportedResult": 97
  },
  {
    "compound": "CCOC(=O)Cc1c(C)nc(N)[nH]c1=O",
    "reportedResult": 81
  }
]

====

Target: Cystic fibrosis transmembrane conductance regulator (Homo sapiens) (UniProt P13569)
Sequence (P13569 whole entry, looked up, stated change not applied): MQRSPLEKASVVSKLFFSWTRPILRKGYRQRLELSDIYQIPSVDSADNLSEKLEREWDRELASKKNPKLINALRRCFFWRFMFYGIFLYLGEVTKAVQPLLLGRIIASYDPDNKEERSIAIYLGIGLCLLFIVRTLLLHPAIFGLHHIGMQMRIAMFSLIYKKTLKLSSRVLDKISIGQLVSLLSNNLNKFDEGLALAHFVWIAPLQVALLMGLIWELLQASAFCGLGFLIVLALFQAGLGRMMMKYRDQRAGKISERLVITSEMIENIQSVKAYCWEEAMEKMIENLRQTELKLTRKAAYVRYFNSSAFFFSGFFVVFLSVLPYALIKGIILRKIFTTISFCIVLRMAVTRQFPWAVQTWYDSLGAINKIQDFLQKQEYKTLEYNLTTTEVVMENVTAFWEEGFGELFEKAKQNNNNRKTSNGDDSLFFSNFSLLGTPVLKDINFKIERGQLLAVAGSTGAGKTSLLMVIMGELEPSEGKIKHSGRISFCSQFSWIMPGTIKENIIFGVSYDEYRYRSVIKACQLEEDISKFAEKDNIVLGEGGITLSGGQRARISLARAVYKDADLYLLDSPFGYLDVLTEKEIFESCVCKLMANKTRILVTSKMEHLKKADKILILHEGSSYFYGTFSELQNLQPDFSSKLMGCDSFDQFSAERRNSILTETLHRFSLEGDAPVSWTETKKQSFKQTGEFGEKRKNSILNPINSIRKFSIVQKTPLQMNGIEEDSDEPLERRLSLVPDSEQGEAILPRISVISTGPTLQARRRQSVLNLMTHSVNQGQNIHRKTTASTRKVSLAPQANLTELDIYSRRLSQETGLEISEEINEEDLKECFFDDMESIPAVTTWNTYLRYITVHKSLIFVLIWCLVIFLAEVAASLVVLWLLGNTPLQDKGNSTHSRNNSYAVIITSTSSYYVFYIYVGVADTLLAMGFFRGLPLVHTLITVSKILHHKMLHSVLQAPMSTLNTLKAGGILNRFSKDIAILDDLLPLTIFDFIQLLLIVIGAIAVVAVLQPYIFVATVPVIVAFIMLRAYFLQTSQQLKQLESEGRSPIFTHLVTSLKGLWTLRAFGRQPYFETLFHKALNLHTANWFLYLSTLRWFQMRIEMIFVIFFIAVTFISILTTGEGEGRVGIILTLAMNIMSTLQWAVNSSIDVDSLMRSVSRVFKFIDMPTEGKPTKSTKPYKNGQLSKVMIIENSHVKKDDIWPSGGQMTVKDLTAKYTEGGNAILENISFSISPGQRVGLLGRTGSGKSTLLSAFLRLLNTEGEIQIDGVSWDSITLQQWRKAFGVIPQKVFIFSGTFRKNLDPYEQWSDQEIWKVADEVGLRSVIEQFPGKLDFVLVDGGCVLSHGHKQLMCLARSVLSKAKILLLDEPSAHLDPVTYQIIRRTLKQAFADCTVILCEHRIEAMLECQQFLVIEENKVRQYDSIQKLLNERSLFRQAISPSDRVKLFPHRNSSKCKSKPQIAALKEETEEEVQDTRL
Assay: F508del-CFTR plasma membrane relocalization enhancers – imaging, HeLa, high-content microscopy, immunofluorescence, primary screen (AID 1224864);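 note: HeLa cells stably expressing F508del-CFTR stained with 3G11 antibody against NBD1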;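 for plasma membrane CFTR intensity: mean immunofluorescence in a thin cell-margin band taken as plasma membrane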
Details: PM immunofluorescence imaging, 24 h, at 10 µM, stronger effect = higher value, relative to vehicle wells set at 100
About 20 (1%) of roughly 2,000 compounds were called active. The sample as a whole holds a higher share of actives than the screen did.
valueKind: plasma membrane CFTR intensity (%)

[
  {
    "mol": "COC(=O)CN1CC(=O)N(c2ccccc2)C1=S",
    "reportedResult": 83
  },
  {
    "mol": "C/C(CCc1oc2ccc(Cl)cc2c1-c1ccc(C)o1)=N\\O",
    "reportedResult": 91
  },
  {
    "mol": "S=C(c1ccc2c(c1)OCO2)N1CCCCC1",
    "reportedResult": 83
  }
]
